Data provenance is paper PMC12586182.

- assayedTarget: p38γ (Homo sapiens, UniProt P53778)
- Construct: purchased Carna Biosciences
- Sequence (P53778 whole entry): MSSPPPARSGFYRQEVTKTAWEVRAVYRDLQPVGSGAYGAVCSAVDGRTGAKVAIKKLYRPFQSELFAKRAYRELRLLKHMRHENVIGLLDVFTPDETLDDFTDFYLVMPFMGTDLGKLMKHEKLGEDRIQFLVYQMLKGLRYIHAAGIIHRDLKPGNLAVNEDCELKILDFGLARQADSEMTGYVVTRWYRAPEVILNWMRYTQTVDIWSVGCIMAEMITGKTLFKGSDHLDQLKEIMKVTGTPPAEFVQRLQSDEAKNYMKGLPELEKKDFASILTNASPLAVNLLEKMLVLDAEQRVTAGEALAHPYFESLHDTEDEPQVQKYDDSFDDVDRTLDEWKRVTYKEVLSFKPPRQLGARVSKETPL
- procedureSummary: Kinase panel profiling at 1 µmol/L (mobility shift assay, Carna)
- Assay type: biochemical
- condition: 1 µmol/L of BTK inhibitor
Quick reference: Percentage inhibition of kinase enzyme activity of the listed items.
Hi! Could you send only the number? It should be in %, unit omitted.

>  <chemicalSmiles>
CC#CC(=O)N1CCC[C@H]1c1nc(-c2ccc(C(=O)Nc3ccccn3)cc2)c2c(N)nccn12

>  <assayedTarget>
p38γ (Homo sapiens, UniProt P53778)

>  <measuredResult>
-1.74

$$$$
>  <chemicalSmiles>
O=C(c1ccc(Oc2ccccc2)cc1Cl)c1c[nH]c2ncnc(N[C@@H]3CC[C@@H](CO)OC3)c12

>  <assayedTarget>
p38γ (Homo sapiens, UniProt P53778)

>  <measuredResult>
0.72

$$$$
>  <chemicalSmiles>
COc1ccc(F)cc1C(=O)NCc1ccc(-c2nn([C@@H](C)C(F)(F)F)c(N)c2C(N)=O)cc1

>  <assayedTarget>
p38γ (Homo sapiens, UniProt P53778)

>  <measuredResult>
-2.05

$$$$

Recorded Percentage inhibition of kinase enzyme activity of C=CC(=O)N1CCC[C@@H](n2nc(-c3ccc(Oc4ccccc4)cc3)c3c(N)ncnc32)C1 , please.
3.51

* * *

- assayedTarget: PGK (Homo sapiens, UniProt Q13976)
- Construct: purchased Carna Biosciences
- Sequence (Q13976 whole entry): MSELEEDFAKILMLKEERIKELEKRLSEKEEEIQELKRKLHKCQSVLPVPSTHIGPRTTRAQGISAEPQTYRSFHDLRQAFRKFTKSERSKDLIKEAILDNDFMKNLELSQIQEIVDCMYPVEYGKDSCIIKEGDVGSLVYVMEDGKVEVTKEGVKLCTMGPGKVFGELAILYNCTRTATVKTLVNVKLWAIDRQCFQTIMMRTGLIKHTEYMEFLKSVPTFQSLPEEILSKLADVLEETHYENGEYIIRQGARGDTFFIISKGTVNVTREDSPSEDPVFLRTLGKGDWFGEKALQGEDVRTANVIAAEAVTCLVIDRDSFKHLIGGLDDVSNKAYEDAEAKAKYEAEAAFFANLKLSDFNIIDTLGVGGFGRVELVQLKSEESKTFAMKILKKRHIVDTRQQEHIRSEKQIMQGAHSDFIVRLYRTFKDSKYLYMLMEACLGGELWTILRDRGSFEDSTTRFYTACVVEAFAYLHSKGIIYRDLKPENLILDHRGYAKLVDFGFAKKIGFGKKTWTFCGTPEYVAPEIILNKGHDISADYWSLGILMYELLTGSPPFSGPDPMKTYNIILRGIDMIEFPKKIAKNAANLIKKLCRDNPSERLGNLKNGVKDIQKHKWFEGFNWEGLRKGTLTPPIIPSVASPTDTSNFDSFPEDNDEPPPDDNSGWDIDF
- procedureSummary: Kinase panel profiling at 1 µmol/L (mobility shift assay, Carna)
- Format: biochemical
- condition: 1 µmol/L of BTK inhibitor
Quick reference: Percentage inhibition of kinase enzyme activity of the listed items.
Hi! Could you send only the number? It should be in %, unit omitted.

>  <chemicalSmiles>
CC#CC(=O)N1CCC[C@H]1c1nc(-c2ccc(C(=O)Nc3ccccn3)cc2)c2c(N)nccn12

>  <valueUnits>
%

>  <measuredResult>
-3.70

$$$$
>  <chemicalSmiles>
COc1ccc(F)cc1C(=O)NCc1ccc(-c2nn([C@@H](C)C(F)(F)F)c(N)c2C(N)=O)cc1

>  <valueUnits>
%

>  <measuredResult>
0.94

$$$$

Recorded Percentage inhibition of kinase enzyme activity of O=C(c1ccc(Oc2ccccc2)cc1Cl)c1c[nH]c2ncnc(N[C@@H]3CC[C@@H](CO)OC3)c12 , please.
-2.11

Recorded Percentage inhibition of kinase enzyme activity of C=CC(=O)N1CCC[C@@H](n2nc(-c3ccc(Oc4ccccc4)cc3)c3c(N)ncnc32)C1 , please.
1.89

* * *

- assayedTarget: AurC (Homo sapiens, UniProt Q9UQB9)
- Construct: purchased Carna Biosciences
- Sequence (Q9UQB9 1-309): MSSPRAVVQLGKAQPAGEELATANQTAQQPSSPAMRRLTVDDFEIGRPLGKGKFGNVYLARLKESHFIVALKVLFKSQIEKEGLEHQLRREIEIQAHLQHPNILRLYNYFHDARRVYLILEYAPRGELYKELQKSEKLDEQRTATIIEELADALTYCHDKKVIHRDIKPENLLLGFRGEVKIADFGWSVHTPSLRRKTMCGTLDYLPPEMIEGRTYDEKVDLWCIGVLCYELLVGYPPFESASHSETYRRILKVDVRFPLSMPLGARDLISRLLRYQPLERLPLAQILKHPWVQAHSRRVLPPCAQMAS
- procedureSummary: Kinase panel profiling at 1 µmol/L (mobility shift assay, Carna)
- Assay type: biochemical
- condition: 1 µmol/L of BTK inhibitor
Quick reference: Percentage inhibition of kinase enzyme activity of the listed items.
Hi! Could you send only the number? It should be in %, unit omitted.

Look over these answered cases.
>  <chemicalSmiles>
C=CC(=O)N1CCC([C@@H]2CCNc3c(C(N)=O)c(-c4ccc(Oc5ccccc5)cc4)nn32)CC1

>  <measuredResult>
-0.85

$$$$
>  <chemicalSmiles>
COc1ccc(F)cc1C(=O)NCc1ccc(-c2nn([C@@H](C)C(F)(F)F)c(N)c2C(N)=O)cc1

>  <measuredResult>
39.97

$$$$
>  <chemicalSmiles>
CC#CC(=O)N1CCC[C@H]1c1nc(-c2ccc(C(=O)Nc3ccccn3)cc2)c2c(N)nccn12

>  <measuredResult>
7.21

$$$$
>  <chemicalSmiles>
O=C(c1ccc(Oc2ccccc2)cc1Cl)c1c[nH]c2ncnc(N[C@@H]3CC[C@@H](CO)OC3)c12

>  <measuredResult>
65.10

$$$$

Turning to the following compound.
Recorded Percentage inhibition of kinase enzyme activity of C=CC(=O)N1CCC[C@@H](n2nc(-c3ccc(Oc4ccccc4)cc3)c3c(N)ncnc32)C1 , please.
6.95
